System: NCI-H23 NSCL
Assay: In vitro cytotoxicity (MTS, 72 h), NCI-H23
Type: cell-based
Settings: Homo sapiens; NCI-H23, 72 hours of incubation
quantity-kind: pIC50
Units for pIC50: none; it is -log10 of a concentration expressed in mol/L.

# compound C[C@]1(CO)O[C@@H](n2ccc(N)nc2=O)[C@@H](F)[C@@H]1O ; its pIC50 = 6.72
